- system_under_test: human JAK1 (a.a. 837-1142) (Homo sapiens, UniProt P23458)
- Construct: The catalytic domains of human JAK1 (a.a. 837-1142); His tag (N); made in house; host or cells: insect cells (baculovirus)
- Sequence (P23458 849-1154): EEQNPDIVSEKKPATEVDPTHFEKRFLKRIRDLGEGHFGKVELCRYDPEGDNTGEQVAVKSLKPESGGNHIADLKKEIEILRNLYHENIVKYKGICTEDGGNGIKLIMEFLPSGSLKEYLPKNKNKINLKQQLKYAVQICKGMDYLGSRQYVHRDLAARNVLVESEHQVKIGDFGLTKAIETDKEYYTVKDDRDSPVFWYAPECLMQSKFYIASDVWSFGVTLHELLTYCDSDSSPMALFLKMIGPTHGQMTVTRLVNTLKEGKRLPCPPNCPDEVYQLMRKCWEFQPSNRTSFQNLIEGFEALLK
- method_description: In vitro JAK kinase assay (HTRF, phosphorylation of biotinylated peptide), JAK1
- Format: biochemical
- assay_context: 1 mM ATP; Examples 92-162; read-out: JAK1 IC50 (nM) @ 1 mM ATP
IC50 listing for selected compounds.

Consider the worked cases shown below.
>>> df
                                   compound                         system_under_test     measured
0  CCC(CN1CCN(C(=O)c2ccccc2O)CC1)n1cc(-c2ncnc3[nH]ccc23)cn1 (stereo not shown)  human JAK1 (a.a. 837-1142) (Homo sapiens, UniProt P23458)  20 to 50 nM
1  Cc1c(Nc2ccc(F)cc2F)ncnc1N1CCC(C(CC#N)n2cc(-c3ncnc4[nH]ccc34)cn2)CC1 (stereo not shown)  human JAK1 (a.a. 837-1142) (Homo sapiens, UniProt P23458)      < 20 nM

Short answer for CCC(CN1CCN(C(=O)c2ccc(Cl)cc2F)CC1)n1cc(-c2ncnc3[nH]ccc23)cn1 (stereo not shown) : IC50 was < 20 nM

Short answer for N#CCC(CN1CCCN(C(=O)c2ccc(Cl)cc2)CC1)n1cc(-c2ncnc3[nH]ccc23)cn1 (stereo not shown) : IC50 was 20 to 50 nM

Data origin, for the record: patent US9249145B2
